# growth inhibition per record follows
Assay: A549 NSCLC cell proliferation inhibitors – ATP luminescence, human non-small cell lung line, primary screen (AID 371);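 further: compound exposure lasted 72 h before the ATP read; 0% = untreated cell signal and 100% = no luminescence left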
Conditions: at 10 µM, active compounds read high
Out of some 3,300 compounds screened, about 280 (8.5%) were called active. The sample holds actives, similar compounds and a random draw of the others, so the mix is not that of the screen.
Give the value, in units of %, as a plain number.

Illustrative cases are given below, each with its answer.
Cc1cc(Cl)ccc1OCC(=O)OC(C)C(=O)N(C)C (stereo not given) | -0.96
CCOC(=O)C1CCCN(c2nc3ccccc3nc2C(C#N)C(=O)OC(C)COC)C1 (stereo not given) | 24.2
CC[C@H]1CN2CCc3cc(OC)c(OC)cc3[C@@H]2C[C@@H]1C[C@H]1NCCc2cc(OC)c(OC)cc21 | 78.5
COc1cc(Cn2ccnc2)c(OC)cc1Cn1ccnc1 | 1
O=C(O)CC(SCc1ccc(C(=O)O)o1)C(=O)O (stereo not given) | -5.57
Oc1c(C=Nc2cccnc2)sc2ccccc12 | 9.67

# compound `Cc1cc(C)n(C(=O)CNC(=O)CCc2ccccc2)n1` ; its growth inhibition = -2.74

Per the record, `O=c1c2sc3nc(N4CCOCC4)c4c(c3c2ncn1Cc1ccco1)CCCC4` has growth inhibition of 22.7

The measured growth inhibition associated with `CC(=O)N=C(N)Sc1nc2ccccc2[nH]1` reads 6.73

// recorded growth inhibition for `CCOC(=O)c1[nH]c2ccc(F)cc2c1NC(=O)CCN1CCSCC1` : 0.98

For record `Cc1cccc(N2CC(=O)N(c3cccc(C)c3)CC2=O)c1` the listed growth inhibition is 3.38

growth inhibition in this record for `Cn1c(=O)cc(NCc2ccccc2)[nH]c1=O` : 8.28

For this compound ( `OCCN(CCO)c1ncnc2c1sc1nc(N3CCOCC3)c3c(c12)CCCC3` ), measured growth inhibition is 58.3

Note to self: growth inhibition recorded for `O=C(Nc1ccccc1)c1cc(N2CCOCC2)nc2ccccc12` was 8.97

response.value for `Fc1ccc2[nH]c3c(N4CCN(c5ccccc5)CC4)ncnc3c2c1` (field: growth inhibition) = 90.1
